# MEASUREMENT TARGET: human ether-à-go-go-related gene (hERG) potassium channel (human, UniProt Q12809);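 also: peak tail current of the secondary pulse compared with the same well before compound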
# Sequence (Q12809 whole entry, looked up): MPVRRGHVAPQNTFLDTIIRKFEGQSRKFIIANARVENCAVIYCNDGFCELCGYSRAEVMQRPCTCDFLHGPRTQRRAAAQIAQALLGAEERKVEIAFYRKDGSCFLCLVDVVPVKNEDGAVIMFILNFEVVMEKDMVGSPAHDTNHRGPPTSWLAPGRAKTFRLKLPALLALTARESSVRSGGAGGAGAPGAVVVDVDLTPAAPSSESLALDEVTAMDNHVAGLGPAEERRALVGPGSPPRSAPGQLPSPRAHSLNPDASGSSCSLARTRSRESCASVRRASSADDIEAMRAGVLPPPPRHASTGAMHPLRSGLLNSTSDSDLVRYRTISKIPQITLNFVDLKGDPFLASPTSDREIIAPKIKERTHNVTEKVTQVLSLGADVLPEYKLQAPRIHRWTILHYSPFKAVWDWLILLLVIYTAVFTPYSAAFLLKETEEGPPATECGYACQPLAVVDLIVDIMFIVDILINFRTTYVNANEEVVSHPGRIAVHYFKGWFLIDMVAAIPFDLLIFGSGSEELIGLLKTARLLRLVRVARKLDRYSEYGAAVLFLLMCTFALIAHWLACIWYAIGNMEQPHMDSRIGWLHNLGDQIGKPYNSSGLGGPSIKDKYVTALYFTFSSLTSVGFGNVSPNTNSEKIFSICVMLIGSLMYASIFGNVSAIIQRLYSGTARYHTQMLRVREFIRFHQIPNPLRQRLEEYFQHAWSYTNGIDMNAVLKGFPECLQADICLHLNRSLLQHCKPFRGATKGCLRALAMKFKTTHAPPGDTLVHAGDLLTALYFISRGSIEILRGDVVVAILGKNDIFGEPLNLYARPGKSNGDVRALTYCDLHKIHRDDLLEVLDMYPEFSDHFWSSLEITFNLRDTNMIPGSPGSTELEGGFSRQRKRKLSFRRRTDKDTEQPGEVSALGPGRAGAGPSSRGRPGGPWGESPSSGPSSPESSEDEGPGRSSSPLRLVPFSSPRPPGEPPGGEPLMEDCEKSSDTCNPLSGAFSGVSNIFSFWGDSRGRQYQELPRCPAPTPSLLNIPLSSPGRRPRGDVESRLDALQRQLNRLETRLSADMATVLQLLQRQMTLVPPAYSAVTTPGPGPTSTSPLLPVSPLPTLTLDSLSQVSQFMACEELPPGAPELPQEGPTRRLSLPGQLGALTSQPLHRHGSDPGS
# TEST SUMMARY: primary screen, population patch clamp on CHO cells stably expressing hERG; higher = less effect of the substance
Among all 310,000 compounds or so, about 14,000 (4.5%) showed an effect of 50% or more. Effects have a minus sign here. The sample holds strong results, similar compounds and a random draw of the others, so the mix is not that of the screen.
Reported hERG current change (%, negative = inhibition) at 10uM values follow for various compounds
# output: bare number, implied unit %

Use the examples below as a reference point.
*Q* Look up and state reported hERG current change (%, negative = inhibition) at 10uM for CCCCC1C2=C(CC(C)(C)CC2=O)OC2=C1C(=O)CC(C)(C)C2
*A* -9.48

*Q* Look up and state reported hERG current change (%, negative = inhibition) at 10uM for Cc1ccc(N=CC2=C(O)CC(c3ccccc3Cl)CC2=O)cc1 (stereo not shown)
*A* -6.91

*Q* Look up and state reported hERG current change (%, negative = inhibition) at 10uM for O=C(c1cc2ccccc2oc1=O)N1CCN(c2ncccn2)CC1
*A* 8.16

*Q* Look up and state reported hERG current change (%, negative = inhibition) at 10uM for CCC[N+](C)(C)C(C)C(OC(C)=O)c1ccccc1.[I-] (stereo not shown)
*A* 15.5

*Q* Look up and state reported hERG current change (%, negative = inhibition) at 10uM for C=CCn1c(O)c(N=Nc2ccccc2C)c2ccccc21
*A* 4.06

More entries:
*Q* Look up and state reported hERG current change (%, negative = inhibition) at 10uM for O=C(Nc1cccnc1)c1ccc([N+](=O)[O-])s1
*A* -20.1

*Q* Look up and state reported hERG current change (%, negative = inhibition) at 10uM for O=C(NC12CC3CC(CC(C3)C1)C2)C12CC3CC(C1)CC(n1cnc(Cl)n1)(C3)C2
*A* 2.42

*Q* Look up and state reported hERG current change (%, negative = inhibition) at 10uM for CCOC(=O)c1sc(NC(=O)CSc2nncn2C)nc1C
*A* 9.68

*Q* Look up and state reported hERG current change (%, negative = inhibition) at 10uM for COC(=O)c1ccc(/C=C2/SC(=S)N(CCCC(=O)Nc3ccccn3)C2=O)cc1
*A* 15.4

*Q* Look up and state reported hERG current change (%, negative = inhibition) at 10uM for O=C(CSc1nnc(CNC(=O)c2cccc(C(F)(F)F)c2)o1)NC1CCCC1
*A* 5.51

---

Reported hERG current change (%, negative = inhibition) at 10uM values follow for various compounds
# MEASUREMENT TARGET: human ether-à-go-go-related gene (hERG) potassium channel (human, UniProt Q12809);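 also: peak tail current of the secondary pulse compared with the same well before compound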
# TEST SUMMARY: primary screen, population patch clamp on CHO cells stably expressing hERG; higher = less effect of the substance
The campaign covered roughly 310,000 compounds. About 14,000 (4.5%) showed an effect of 50% or more. Effects have a minus sign here. This is one part of a sample in which strong results are shown more often than they occur.
Report as: number unit

*Q* Look up and state reported hERG current change (%, negative = inhibition) at 10uM for COc1ccc(/C=C(\NC(=O)c2ccc([N+](=O)[O-])cc2)C(=O)N2CCOCC2)cc1
*A* -75%

*Q* Look up and state reported hERG current change (%, negative = inhibition) at 10uM for COCCn1c(CN(C)Cc2ccccc2)nc2c1c(=O)n(C)c(=O)n2C
*A* -6.15%

*Q* Look up and state reported hERG current change (%, negative = inhibition) at 10uM for CCCCc1cc(=O)oc2c(C)c(OCC(=O)N3CCC(C(N)=O)CC3)ccc12
*A* -16.7%

More entries:
*Q* Look up and state reported hERG current change (%, negative = inhibition) at 10uM for CCc1cc(=O)oc2c(C)c(OCC(=O)N3C[C@H]4C[C@@H](C3)c3cccc(=O)n3C4)ccc12
*A* 5.08%

*Q* Look up and state reported hERG current change (%, negative = inhibition) at 10uM for Cc1ccc(C(=O)N/C(=C\c2ccco2)C(=O)N2CCOCC2)cc1C
*A* 11%

*Q* Look up and state reported hERG current change (%, negative = inhibition) at 10uM for Cn1c(=O)c2c(nc(CN3CCN(c4cccc(Cl)c4)CC3)n2CCc2ccccc2)n(C)c1=O
*A* -20.1%

*Q* Look up and state reported hERG current change (%, negative = inhibition) at 10uM for COc1cc(/C=C(/NC(=O)c2ccccc2)C(=O)N2CCOCC2)c([N+](=O)[O-])cc1OC
*A* -3.92%

*Q* Look up and state reported hERG current change (%, negative = inhibition) at 10uM for C=C(C)COc1ccc2c(C)c(CC(=O)N3C[C@H]4C[C@@H](C3)c3cccc(=O)n3C4)c(=O)oc2c1C
*A* -49.2%

Data provenance: paper PMC4336329
